Study Target: human CCR8 (human, UniProt P51685 1-355)
Method Summary: cell-based or functional assay
Measured Attribute: residual hCCL1 (100 nM) Gi2 response, protocol #2, mAb 0.4 µg/mL (%)
Just the number please, in %, no unit attached.

[Q] Look at this binder and give its reported residual hCCL1 (100 nM) Gi2 response, protocol #2, mAb 0.4 µg/mL. anti-CCR8 mAb 1-15 (antibody, V domains shown, Murine hybridoma mAb) VH: EVQLQQSGPELVKPGASVKISCKTSGYTFTEYTMHWVKQSHGKSLEWIGGINPNNGDTNYNQKFMGKATLTVDKSSSTAYMELRSLTSEDSAVYYCVRRLLRRGAMDYWGQGTSVTVSS VL: DIVLTQSPASLAVSLGQRATISCRASENVEYYGTSLMQWFQQKPGQPPKLLIYAASNVDSGVPARFSGSGSGTDFSLNIHPVEEDDIAMYFCQQSRKVPWTFGGGTKLDIK
[A] 102
